The reported numbers originate from patent US12391676B2.

target: BRD4 (Homo sapiens (Human)); test: BRD4 DSF thermal shift (ΔTm); type: binding; settings: Table 2
ASSAY READOUT: BRD4 DSF (ΔTm) (°C)

Recorded BRD4 DSF (ΔTm), per entry:
{"CHEMICAL STRING": "Cc1cnc(Nc2cc(F)c(C3CCN(C)CC3)c(F)c2)nc1Nc1ccc(F)c(NS(=O)(=O)C(C)(C)C)c1", "BRD4 DSF (ΔTm) (°C)": 14.7}
{"CHEMICAL STRING": "Cc1cnc(Nc2cc(F)c(C3CCNCC3)cn2)nc1Nc1ccc(Cl)c(NS(=O)(=O)C(C)(C)C)c1.Cl", "BRD4 DSF (ΔTm) (°C)": 14.5}
{"CHEMICAL STRING": "Cc1cnc(Nc2cc(F)c(C3CCN(C)CC3)c(F)c2)nc1Nc1cccc(NS(=O)(=O)C(C)(C)C)n1", "BRD4 DSF (ΔTm) (°C)": 5.1}

(A) Cc1cnc(Nc2ccc(OCCN3CCCC3)cc2)nc1Nc1cc(NS(=O)(=O)C(C)(C)C)ncn1
(B) Cc1cnc(Nc2cc(F)c(C3CCN(C)CC3)cn2)nc1Nc1ccc2ccn(S(=O)(=O)C(C)(C)C)c2n1
Inquiry: Higher BRD4 DSF (ΔTm) between A and B ? I would appreciate it if you answered with the label of your choice.
Reply text: B

---

molecular target: JAK2 (Homo sapiens (Human), UniProt O60674); experiment: JAK2 IC50; type: biochemical; conditions: Table 2
Sequence (O60674 whole entry): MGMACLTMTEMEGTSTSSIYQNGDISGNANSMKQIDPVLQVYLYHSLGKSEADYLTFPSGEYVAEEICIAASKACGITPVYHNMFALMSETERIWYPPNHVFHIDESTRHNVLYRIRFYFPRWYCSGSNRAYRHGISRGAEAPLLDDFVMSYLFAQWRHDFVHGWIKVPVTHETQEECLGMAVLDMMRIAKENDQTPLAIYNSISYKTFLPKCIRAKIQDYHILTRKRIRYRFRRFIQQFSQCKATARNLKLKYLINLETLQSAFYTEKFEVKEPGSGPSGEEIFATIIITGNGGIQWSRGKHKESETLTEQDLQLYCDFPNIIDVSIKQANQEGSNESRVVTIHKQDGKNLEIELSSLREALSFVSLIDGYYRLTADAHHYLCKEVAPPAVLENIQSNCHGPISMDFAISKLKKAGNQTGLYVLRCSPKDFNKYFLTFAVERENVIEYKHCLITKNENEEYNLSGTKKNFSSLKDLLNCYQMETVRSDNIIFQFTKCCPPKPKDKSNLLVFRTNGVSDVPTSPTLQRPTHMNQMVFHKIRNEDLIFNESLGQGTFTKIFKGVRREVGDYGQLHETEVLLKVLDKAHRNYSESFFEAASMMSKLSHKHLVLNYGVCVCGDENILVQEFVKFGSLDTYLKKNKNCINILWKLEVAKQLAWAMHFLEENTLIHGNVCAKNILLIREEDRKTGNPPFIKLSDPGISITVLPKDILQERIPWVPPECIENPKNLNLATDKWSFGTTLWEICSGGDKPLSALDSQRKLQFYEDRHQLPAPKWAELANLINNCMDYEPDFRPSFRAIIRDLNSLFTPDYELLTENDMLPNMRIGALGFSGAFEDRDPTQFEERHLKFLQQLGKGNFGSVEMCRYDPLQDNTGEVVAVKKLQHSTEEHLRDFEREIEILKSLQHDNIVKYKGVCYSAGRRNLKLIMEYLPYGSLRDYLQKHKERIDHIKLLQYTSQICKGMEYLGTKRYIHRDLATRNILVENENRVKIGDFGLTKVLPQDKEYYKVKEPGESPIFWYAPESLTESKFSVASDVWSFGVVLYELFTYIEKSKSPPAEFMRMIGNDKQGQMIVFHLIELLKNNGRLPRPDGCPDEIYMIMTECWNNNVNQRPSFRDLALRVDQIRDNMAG
ASSAY READOUT: IC50 (nM)

{"MOLECULE": "Cc1cnc(Nc2ccc(C3CCN(C)CC3)c(F)c2)nc1Nc1ccc(Cl)c(NS(=O)(=O)C(C)(C)C)c1 [MA9-060]", "IC50 [nM]": 3.3}
{"MOLECULE": "Cc1cnc(Nc2ccc(C3CCN(C)CC3)cc2)nc1Nc1cccc(NS(=O)(=O)C(C)(C)C)c1 [SY3-034]", "IC50 [nM]": 1.6}

(1) Cc1cnc(Nc2ccc(C3CCN(C)CC3)cc2)nc1Nc1ccc(Cl)c(NS(=O)(=O)C(C)(C)C)c1 [MA9-050]
(2) Cc1cnc(Nc2cc(F)cc(N3CCN(C)CC3)c2)nc1Nc1cccc(NS(=O)(=O)C(C)(C)C)c1 [SY3-040]
Inquiry: Higher IC50 between 1 and 2 ? I would appreciate it if you answered with the label of your choice.
Reply text: 1
(1: 8.2 nM, 2: 3.1 nM)

---

target: UniProt:O60885; assay: BRD4 DSF thermal shift (ΔTm); type: binding; conditions: Table 1
ASSAY READOUT: DSF ΔTm (°C)

{"COMPOUND": "Cc1cnc(Nc2ccc(C3CCN(C)CC3)c(F)c2)nc1Nc1ccc(Cl)c(NS(=O)(=O)C(C)(C)C)c1 [drawing 9]", "SYSTEM TESTED": "UniProt:O60885", "UNIT TEXT": "°C", "DSF ΔTm": 14.2}
{"COMPOUND": "Cc1cnc(Nc2ccc(C3CCN(C)CC3)c(F)c2)nc1Nc1cccc(NS(=O)(=O)C(C)(C)C)c1 [drawing 13]", "SYSTEM TESTED": "UniProt:O60885", "UNIT TEXT": "°C", "DSF ΔTm": 12.3}
{"COMPOUND": "Cc1cnc(Nc2cc(F)cc(N3CCN(C)CC3)c2)nc1Nc1cccc(NS(=O)(=O)C(C)(C)C)c1 [drawing 14]", "SYSTEM TESTED": "UniProt:O60885", "UNIT TEXT": "°C", "DSF ΔTm": 11.1}
{"COMPOUND": "Cc1cnc(Nc2ccc(C3CCN(C)CC3)cc2)nc1Nc1cccc(NS(=O)(=O)C(C)(C)C)c1 [drawing 12]", "SYSTEM TESTED": "UniProt:O60885", "UNIT TEXT": "°C", "DSF ΔTm": 10.6}
{"COMPOUND": "Cc1cnc(Nc2ccc(OCCN3CCCC3)c(F)c2)nc1Nc1ccc(Cl)c(NS(=O)(=O)C(C)(C)C)c1", "SYSTEM TESTED": "UniProt:O60885", "UNIT TEXT": "°C", "DSF ΔTm": 15.1}
{"COMPOUND": "Cc1cnc(Nc2ccc(OCCN3CCCC3)cc2)nc1Nc1ccc(Cl)c(NS(=O)(=O)C(C)(C)C)c1", "SYSTEM TESTED": "UniProt:O60885", "UNIT TEXT": "°C", "DSF ΔTm": 12.9}
{"COMPOUND": "CN1CCC(c2ccc(Nc3ncc(C(F)(F)F)c(Nc4ccc(Cl)c(NS(=O)(=O)C(C)(C)C)c4)n3)cc2F)CC1", "SYSTEM TESTED": "UniProt:O60885", "UNIT TEXT": "°C", "DSF ΔTm": 10.4}
{"COMPOUND": "Cc1cnc(Nc2ccc(N3CCN(CCCN)CC3)c(F)c2)nc1Nc1cccc(NS(=O)(=O)C(C)(C)C)c1", "SYSTEM TESTED": "UniProt:O60885", "UNIT TEXT": "°C", "DSF ΔTm": 9.4}
{"COMPOUND": "Cc1cnc(Nc2ccc(OCCN3CCCC3)c(F)c2)nc1Nc1cccc(NS(=O)(=O)C(C)(C)C)c1", "SYSTEM TESTED": "UniProt:O60885", "UNIT TEXT": "°C", "DSF ΔTm": 12.6}
{"COMPOUND": "CN1CCN(c2ccc(Nc3ncc(F)c(Nc4ccc(Cl)c(NS(=O)(=O)C(C)(C)C)c4)n3)cc2)CC1", "SYSTEM TESTED": "UniProt:O60885", "UNIT TEXT": "°C", "DSF ΔTm": 9.6}
{"COMPOUND": "Cc1cnc(Nc2ccc(C3CCN(C)CC3)cc2)nc1Nc1ccc(Cl)c(NS(=O)(=O)C(C)(C)C)c1 [drawing 11]", "SYSTEM TESTED": "UniProt:O60885", "UNIT TEXT": "°C", "DSF ΔTm": 12.3}
{"COMPOUND": "Cc1cnc(Nc2ccc(C3CCN(C)CC3)c(F)c2)cc1Nc1ccc2c(c1)N(S(=O)(=O)C(C)(C)C)CC2 [drawing 16]", "SYSTEM TESTED": "UniProt:O60885", "UNIT TEXT": "°C", "DSF ΔTm": 8.9}
{"COMPOUND": "Cc1cnc(Nc2cc(F)cc(N3CCN(C)CC3)c2)nc1Nc1ccc(Cl)c(NS(=O)(=O)C(C)(C)C)c1 [drawing 10]", "SYSTEM TESTED": "UniProt:O60885", "UNIT TEXT": "°C", "DSF ΔTm": 11.1}
{"COMPOUND": "Cc1cnc(Nc2ccc(N3CCNCC3)c(F)c2)nc1Nc1ccc(Cl)c(NS(=O)(=O)C(C)(C)C)c1", "SYSTEM TESTED": "UniProt:O60885", "UNIT TEXT": "°C", "DSF ΔTm": 13}
{"COMPOUND": "Cc1cnc(Nc2ccc(N3CCN(CCCN)CC3)c(F)c2)nc1Nc1ccc(Cl)c(NS(=O)(=O)C(C)(C)C)c1", "SYSTEM TESTED": "UniProt:O60885", "UNIT TEXT": "°C", "DSF ΔTm": 11}
